target: PDGF-BB (Homo sapiens, UniProt P01127 P01127:82-190); experiment: SPR; virtually same as S1; conditions: tags: R&D Systems; amine-coupled to SPR chip; chain copies: 2 (inferred, homodimer)
Sequence (P01127 82-190, one chain of several): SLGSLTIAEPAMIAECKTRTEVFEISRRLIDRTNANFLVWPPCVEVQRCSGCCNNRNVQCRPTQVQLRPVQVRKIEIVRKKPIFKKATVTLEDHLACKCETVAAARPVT
Readout Type: binding result

- CATGAGCCCTACAGGCTACGGCACGTAGAGCATCACCATGATCCTG (ssDNA) [S10]: binds
- CCACGGTCTAACAGGCTACGGCACGTAGAGCATCACCATGATCCTG (ssDNA) [S3]: binds
- TCGCACATGCACAGGCTACGGCACGTAGAGCATCACCATGATCCTG (ssDNA) [S6]: binds
